Assay read-out pKi; system under study: human leukocyte LAB TSPO (Homo sapiens).
Sequence (P30536 whole entry): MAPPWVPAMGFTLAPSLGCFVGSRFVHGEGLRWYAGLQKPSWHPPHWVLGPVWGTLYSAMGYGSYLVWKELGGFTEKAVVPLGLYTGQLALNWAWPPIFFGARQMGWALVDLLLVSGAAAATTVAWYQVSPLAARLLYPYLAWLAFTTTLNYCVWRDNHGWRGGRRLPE
pKi field: float, defined as -log10 of concentration (mol/L).

Before answering, review these 4 worked examples.
CC(Sc1cc(-c2ccccc2)nc2ccccc12)C(=O)N(C)c1ccccc1 (centres unmarked): 7.59
CC(C)CN(C)C(=O)C(C)Cc1cc(-c2ccccc2)nc2ccccc12 (centres unmarked) [10l]: 6.73
CC(Oc1ccnc2ccccc12)C(=O)N(C)c1ccccc1 (centres unmarked) [15b]: 7.18
CC(Oc1cc(-c2cccnc2)nc2ccccc12)C(=O)N(C)c1ccccc1 (centres unmarked) [22b]: 7.92

Exam item: Using human leukocyte LAB TSPO (Homo sapiens) as the test system, report measured pKi of CC(Cc1cc(-c2ccccc2)nc2ccccc12)C(=O)N(C)c1ccccc1 (centres unmarked) [10m] .
Marked response: 7.28

====

Biological target: human leukocyte LAB TSPO (Homo sapiens)
Quantity Name: pKi
pKi field: float, defined as -log10 of concentration (mol/L).

CC(Cc1cc(-c2ccccc2)nc2ccccc12)C(=O)N(C)c1ccccn1 (stereo not drawn) [10o]: 6.92
CC(Oc1ccnc(-c2ccccc2)c1)C(=O)N(C)c1ccccc1 (stereo not drawn) [15c]: 7.21
CC(Nc1cc(-c2ccccc2)nc2ccccc12)C(=O)N(C)c1ccccc1 (stereo not drawn): 8.40

Exam item: Return pKi for the following compound: CC(Oc1cc(-c2ccccc2)nc2ccccc12)C(=O)N(C)c1ccccc1 (stereo not drawn) [15a]
Marked response: 8.89

Exam item: Return pKi for the following compound: CC(Oc1cc(-c2ccncc2)nc2ccccc12)C(=O)N(C)c1ccccc1 (stereo not drawn) [22c]
Marked response: 8.15

Exam item: Return pKi for the following compound: CCN(CC)C(=O)[C@H](C)Cc1cc(-c2ccccc2)nc2ccccc12 [(R)-10a]
Marked response: 6.13

Exam item: Return pKi for the following compound: CC(Cc1cc(-c2ccccc2)nc2ccccc12)C(=O)N(C)C(C)C (stereo not drawn) [10j]
Marked response: 6.01

Exam item: Return pKi for the following compound: CCCCN(C)C(=O)C(C)Cc1cc(-c2ccccc2)nc2ccccc12 (stereo not drawn) [10h]
Marked response: 7.05

Exam item: Return pKi for the following compound: CC(Oc1cc(-c2ccccn2)nc2ccccc12)C(=O)N(C)c1ccccc1 (stereo not drawn) [22a]
Marked response: 8.85

====

Molecular target: human leukocyte HAB TSPO (Homo sapiens, UniProt P30536, T147A)
Sequence (P30536 whole entry T147A): as the sequence (P30536 whole entry) above, with T147A counted along it
Experiment: Ligand binding affinity to human leukocyte HAB TSPO
pKi: −log10 of the molar value.
Please note: Satisfied applies when pKi is 9 or greater, and Not satisfied applies otherwise.

Answered cases to consult:
CC(Nc1cc(-c2ccccc2)nc2ccccc12)C(=O)N(C)c1ccccc1 (centres unmarked): Satisfied
CC(Oc1ccnc(-c2ccccc2)c1)C(=O)N(C)c1ccccc1 (centres unmarked) [15c]: Not satisfied
CC(Oc1ccnc2ccccc12)C(=O)N(C)c1ccccc1 (centres unmarked) [15b]: Not satisfied
CC(Oc1cc(-c2ccccc2)nc2ccccc12)C(=O)N(C)c1ccccc1 (centres unmarked) [15a]: Satisfied
CC(Cc1cc(-c2ccccc2)nc2ccccc12)C(=O)N(C)c1ccccc1 (centres unmarked) [10m]: Not satisfied
CC(Cc1cc(-c2ccccc2)nc2ccccc12)C(=O)N(C)C(C)C (centres unmarked) [10j]: Not satisfied
CCN(CC)C(=O)[C@H](C)Cc1cc(-c2ccccc2)nc2ccccc12 [(R)-10a]: Not satisfied
CC(Sc1cc(-c2ccccc2)nc2ccccc12)C(=O)N(C)c1ccccc1 (centres unmarked): Not satisfied

Exam item: Does pKi meet or surpass 9 for CC(Cc1cc(-c2ccccc2)nc2ccccc12)C(=O)N(C)c1ccccn1 (centres unmarked) [10o] ?
Marked response: Not satisfied

Exam item: Does pKi meet or surpass 9 for CC(C)CN(C)C(=O)C(C)Cc1cc(-c2ccccc2)nc2ccccc12 (centres unmarked) [10l] ?
Marked response: Not satisfied

====

Target: human leukocyte HAB and LAB TSPO
Assay: Human TSPO genotype sensitivity, Ki in LAB versus HAB leukocytes
Conditions: read-out: human TSPO genotypes Ki; abstract; one value for the human genotypes
Quantity Name: Ki (nM)
Note: unit nM is implicit; provide only the numeric part.

Exam item: Return Ki for the following compound: CC(Oc1cc(-c2ccccn2)nc2ccccc12)C(=O)N(C)c1ccccc1 (stereo not shown) [22a]
Marked response: 1.4

====

Biological target: rat brain TSPO (Rattus norvegicus, UniProt P16257)
Sequence (P16257 whole entry): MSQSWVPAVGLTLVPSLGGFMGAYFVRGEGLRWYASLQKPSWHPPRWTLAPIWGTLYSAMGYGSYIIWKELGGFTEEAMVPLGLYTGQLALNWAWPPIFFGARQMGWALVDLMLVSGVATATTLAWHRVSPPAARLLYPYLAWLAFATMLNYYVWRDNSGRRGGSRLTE
Assay type: binding
Settings: pKi (rat) minus clogD
Quantity Name: LipE
Number only, please.

CC(Oc1ccnc(-c2ccccc2)c1)C(=O)N(C)c1ccccc1 (stereo not shown) [15c]: 5.3

Exam item: Return LipE for the following molecule: CC(Cc1cc(-c2ccccc2)nc2ccccc12)C(=O)N(C)c1ccccc1F (stereo not shown) [10r]
Marked response: 3.5

====

We begin with a simple list: items and their reported LipE.
Target: rat brain TSPO (Rattus norvegicus, UniProt P16257)
Type: binding
Details: pKi (rat) minus clogD
Number only, please.

CC(Cc1cc(-c2ccccc2)nc2ccccc12)C(=O)N(C)C(C)C (centres unmarked) [10j]: 4.3

Exam item: Return LipE for the following molecule: CCN(C)C(=O)C(C)Cc1cc(-c2ccccc2)nc2ccccc12 (centres unmarked) [10f]
Marked response: 3.8

Exam item: Return LipE for the following molecule: CC(Oc1ccnc2ccccc12)C(=O)N(C)c1ccccc1 (centres unmarked) [15b]
Marked response: 5.29

Exam item: Return LipE for the following molecule: CCCN(C)C(=O)C(C)Cc1cc(-c2ccccc2)nc2ccccc12 (centres unmarked) [10g]
Marked response: 4.2

Exam item: Return LipE for the following molecule: CC(Cc1cc(-c2ccccc2)nc2ccccc12)C(=O)N(C)Cc1ccccc1 (centres unmarked) [10n]
Marked response: 1.8

====

Target: rat brain TSPO (Rattus norvegicus, UniProt P16257)
Lab note: compare Ki with 0.4 nM, writing t if less and f if equal or more.

Answered cases to consult:
CC(Cc1cc(-c2ccccc2)nc2ccccc12)C(=O)N(C)c1cccc(F)c1 (centres unmarked) [10s]: f
CC(Oc1cc(-c2ccncc2)nc2ccccc12)C(=O)N(C)c1ccccc1 (centres unmarked) [22c]: t
CCC(Cc1cc(-c2ccccc2)nc2ccccc12)C(=O)N(CC)CC (centres unmarked) [10c]: f
CC(Oc1cc(-c2cccnc2)nc2ccccc12)C(=O)N(C)c1ccccc1 (centres unmarked) [22b]: t
CC(Oc1ccnc(-c2ccccc2)c1)C(=O)N(C)c1ccccc1 (centres unmarked) [15c]: f

Exam item: Is the reported Ki for CC(Cc1cc(-c2ccccc2)nc2ccccc12)C(=O)N(C)c1ccccc1 (centres unmarked) [10m] strictly below 0.4 nM?
Marked response: f

Exam item: Is the reported Ki for CC(Cc1cc(-c2ccccc2)nc2ccccc12)C(=O)N(C)c1ccccc1F (centres unmarked) [10r] strictly below 0.4 nM?
Marked response: f

====

System: human leukocyte HAB and LAB TSPO
Test: Human TSPO genotype sensitivity, Ki in LAB versus HAB leukocytes
Format: binding
Settings: genotype sensitivity, ratio of Ki
Quantity Name: (LAB Ki)/(HAB Ki)
Number only, please.

Before answering, review these 2 worked examples.
CC(Oc1cc(-c2ccncc2)nc2ccccc12)C(=O)N(C)c1ccccc1 (stereo not drawn) [22c]: 7
CC(Oc1cc(-c2ccccn2)nc2ccccc12)C(=O)N(C)c1ccccc1 (stereo not drawn) [22a]: 1.0

# ---- query compound ----
Exam item: Return (LAB Ki)/(HAB Ki) for the following compound: CC(Cc1cc(-c2ccccc2)nc2ccccc12)C(=O)N(C)c1ccccn1 (stereo not drawn) [10o]
Marked response: 30

====

We begin with a simple list: items and their reported (LAB Ki)/(HAB Ki).
Tested on: human leukocyte HAB and LAB TSPO
Test: Human TSPO genotype sensitivity, Ki in LAB versus HAB leukocytes
Assay type: binding
Conditions: genotype sensitivity, ratio of Ki
Number only, please.

CC(Sc1cc(-c2ccccc2)nc2ccccc12)C(=O)N(C)c1ccccc1 (stereo not shown): 10
CC(Oc1ccnc2ccccc12)C(=O)N(C)c1ccccc1 (stereo not shown) [15b]: 20
CC(C)CN(C)C(=O)C(C)Cc1cc(-c2ccccc2)nc2ccccc12 (stereo not shown) [10l]: 32

# ---- query molecule ----
Exam item: Return (LAB Ki)/(HAB Ki) for the following molecule: CC(Oc1ccnc(-c2ccccc2)c1)C(=O)N(C)c1ccccc1 (stereo not shown) [15c]
Marked response: 31

====

Molecular target: rat brain TSPO (Rattus norvegicus)
We begin with a simple list: items and their reported log10 of Ki.
Scale: log10; quantity: Ki; unit before log: nM

CC(Oc1ccnc2ccccc12)C(=O)N(C)c1ccccc1 (stereo not shown) [15b]: 0.76

Exam item: Using rat brain TSPO (Rattus norvegicus) as the test system, report measured log10 of Ki of CCN(C)C(=O)C(C)Cc1cc(-c2ccccc2)nc2ccccc12 (stereo not shown) [10f] .
Marked response: 0.95

Exam item: Using rat brain TSPO (Rattus norvegicus) as the test system, report measured log10 of Ki of CC(Cc1cc(-c2ccccc2)nc2ccccc12)C(=O)N(C)Cc1ccccc1 (stereo not shown) [10n] .
Marked response: 0.70

Exam item: Using rat brain TSPO (Rattus norvegicus) as the test system, report measured log10 of Ki of CN1CCC(Cc2cc(-c3ccccc3)nc3ccccc23)C1=O (stereo not shown) [10d] .
Marked response: 1.72

Exam item: Using rat brain TSPO (Rattus norvegicus) as the test system, report measured log10 of Ki of CCCN(C)C(=O)C(C)Cc1cc(-c2ccccc2)nc2ccccc12 (stereo not shown) [10g] .
Marked response: 0.08

Exam item: Using rat brain TSPO (Rattus norvegicus) as the test system, report measured log10 of Ki of CC(Cc1cc(-c2ccccc2)nc2ccccc12)C(=O)N(C)c1cccnc1 (stereo not shown) [10p] .
Marked response: 1.00
